Entry source: ChEMBL document CHEMBL2176985

# Assayed system: Neuronal acetylcholine receptor; alpha4/beta4 (Homo sapiens, UniProt P30926+P43681)
# Sequence (P30926 whole entry): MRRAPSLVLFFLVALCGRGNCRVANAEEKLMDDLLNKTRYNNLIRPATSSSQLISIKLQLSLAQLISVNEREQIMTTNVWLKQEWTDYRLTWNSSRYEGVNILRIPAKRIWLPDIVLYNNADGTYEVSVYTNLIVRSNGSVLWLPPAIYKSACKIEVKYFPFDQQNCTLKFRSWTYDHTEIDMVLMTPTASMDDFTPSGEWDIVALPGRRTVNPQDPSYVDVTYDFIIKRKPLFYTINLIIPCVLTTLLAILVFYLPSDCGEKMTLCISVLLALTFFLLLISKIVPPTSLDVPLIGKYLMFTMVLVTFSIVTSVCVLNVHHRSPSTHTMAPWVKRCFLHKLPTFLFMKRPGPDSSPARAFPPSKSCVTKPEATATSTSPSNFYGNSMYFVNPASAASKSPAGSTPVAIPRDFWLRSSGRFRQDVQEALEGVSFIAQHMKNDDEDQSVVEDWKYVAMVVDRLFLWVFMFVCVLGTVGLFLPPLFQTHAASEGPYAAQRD
# Sequence (P43681 whole entry): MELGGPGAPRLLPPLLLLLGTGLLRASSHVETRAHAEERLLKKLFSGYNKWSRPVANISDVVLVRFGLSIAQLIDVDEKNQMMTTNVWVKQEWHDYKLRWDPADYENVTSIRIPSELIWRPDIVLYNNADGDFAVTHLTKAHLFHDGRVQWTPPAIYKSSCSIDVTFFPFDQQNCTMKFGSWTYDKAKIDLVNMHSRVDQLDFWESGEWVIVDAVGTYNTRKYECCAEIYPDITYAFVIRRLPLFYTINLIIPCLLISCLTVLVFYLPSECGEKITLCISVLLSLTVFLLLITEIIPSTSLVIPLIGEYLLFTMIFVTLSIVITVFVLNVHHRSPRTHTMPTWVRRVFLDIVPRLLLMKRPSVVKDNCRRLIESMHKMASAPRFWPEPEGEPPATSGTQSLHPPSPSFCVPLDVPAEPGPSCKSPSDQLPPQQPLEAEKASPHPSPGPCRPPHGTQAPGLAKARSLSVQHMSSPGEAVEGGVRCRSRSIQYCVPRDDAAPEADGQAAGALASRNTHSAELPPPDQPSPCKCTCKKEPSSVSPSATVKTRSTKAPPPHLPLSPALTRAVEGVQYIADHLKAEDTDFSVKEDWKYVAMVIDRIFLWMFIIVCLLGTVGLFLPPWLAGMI
# Protocol text: Binding affinity to alpha4beta4 nAChR
Assay metric: Ki (nM)
Enter your answer as a number in nM; do not include the unit.

Problem: Notebook: pull reported Ki for Neuronal acetylcholine receptor; alpha4/beta4 (Homo sapiens, UniProt P30926+P43681), entry `c1cnc2cc3c(cc2n1)[C@@H]1CNC[C@H]3C1`
Solution: 110

###

I'd appreciate it if you could supply pKi values for the items below.
# Assayed system: Neuronal acetylcholine receptor; alpha4/beta2 (Rattus norvegicus, UniProt P09483+P12390)
# Sequence (P09483 whole entry): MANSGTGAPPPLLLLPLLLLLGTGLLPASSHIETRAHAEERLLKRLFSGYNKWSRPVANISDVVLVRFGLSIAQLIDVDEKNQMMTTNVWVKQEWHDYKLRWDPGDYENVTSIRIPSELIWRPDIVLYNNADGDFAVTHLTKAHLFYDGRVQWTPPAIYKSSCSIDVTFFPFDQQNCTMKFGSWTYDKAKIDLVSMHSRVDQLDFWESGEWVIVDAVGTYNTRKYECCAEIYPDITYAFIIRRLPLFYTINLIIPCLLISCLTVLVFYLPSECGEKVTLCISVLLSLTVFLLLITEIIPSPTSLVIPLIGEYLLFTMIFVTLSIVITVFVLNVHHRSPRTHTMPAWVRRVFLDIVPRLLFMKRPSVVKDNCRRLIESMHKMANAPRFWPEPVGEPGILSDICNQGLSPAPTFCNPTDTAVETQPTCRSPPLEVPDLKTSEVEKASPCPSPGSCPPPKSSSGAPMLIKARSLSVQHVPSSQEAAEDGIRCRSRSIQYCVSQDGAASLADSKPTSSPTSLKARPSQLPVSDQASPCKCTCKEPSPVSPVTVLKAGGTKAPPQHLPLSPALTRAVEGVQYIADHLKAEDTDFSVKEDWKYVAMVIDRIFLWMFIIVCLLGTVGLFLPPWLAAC
# Sequence (P12390 whole entry): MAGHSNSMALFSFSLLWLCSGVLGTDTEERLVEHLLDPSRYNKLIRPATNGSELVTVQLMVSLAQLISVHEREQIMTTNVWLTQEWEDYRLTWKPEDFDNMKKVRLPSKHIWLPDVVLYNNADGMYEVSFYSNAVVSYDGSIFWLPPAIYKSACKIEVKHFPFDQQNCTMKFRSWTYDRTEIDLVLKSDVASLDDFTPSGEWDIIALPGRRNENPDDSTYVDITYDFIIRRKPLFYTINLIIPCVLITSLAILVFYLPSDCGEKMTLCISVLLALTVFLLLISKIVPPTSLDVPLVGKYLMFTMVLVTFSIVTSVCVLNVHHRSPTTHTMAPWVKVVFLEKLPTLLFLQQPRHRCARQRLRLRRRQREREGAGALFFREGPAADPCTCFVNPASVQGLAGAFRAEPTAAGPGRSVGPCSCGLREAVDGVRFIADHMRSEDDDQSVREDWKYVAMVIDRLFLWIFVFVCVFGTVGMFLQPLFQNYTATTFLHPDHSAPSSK
# Protocol text: Displacement of [3H]Epibatidine from alpha4beta2 nAChR in rat brain
# Format: tissue-based
The quantity pKi is defined as the negative base-10 logarithm of the molar concentration.

Problem: What measured pKi goes with `c1ncc(-c2cc(CCN3CCOCC3)no2)cc1OC[C@@H]1CCCN1` ?
Solution: 6.88

Problem: Record request: pKi value, item `c1ncc(-c2cc(CCN3CCOCC3)no2)cc1OC[C@@H]1CCN1`
Solution: 7.58
